system: CP286; assay: qHTS profiling for inhibitors of Plasmodium falciparum proliferation (AID 504749); note: nearly all actives have a fitted effect of over 60% in size; conditions: P. falciparum in erythrocytes, SYBR Green DNA, 72 h; series mostly up to 28.7 µM
Inconclusive results are not listed. Calls of active or inactive are those of the source. Calls come from the whole dose curve; as a rule, active = well fitted inhibition curve with a large enough effect; inconclusive = small, poorly fitted or top-dose-only effect; inactive = flat fitted curve, though single readings scatter.
Give one outcome, nothing more. List: True (active), False (inactive)

{"columns": ["Molecule", "Assigned category"],
 "data": [
  ["CCOc1ccc(N=Nc2ccc(N)cc2N)cc1", "False"],
  ["CC(C)=O", "False"],
  ["Cc1ccccc1", "False"]
]}

Qu. What did this assay record as the result for `O=C1C(=O)c2ncccc2-c2cccnc21` ?
Ans. True

Qu. Could you check what this test reported for `CCCCC(=O)O[C@]1(C(=O)CO)[C@H](C)C[C@H]2[C@@H]3CCC4=CC(=O)C=C[C@]4(C)[C@@]3(F)[C@@H](O)C[C@@]21C` ?
Ans. False

Qu. // param item: `O=C(O)c1cc(O)c2c(c1)[O][Bi][O]2` ; yields the recorded call
Ans. False

Qu. Kindly provide the recorded test outcome for the following molecule: CCCCC(C)(O)C/C=C/[C@H]1[C@H](O)CC(=O)[C@@H]1CCCCCCC(=O)OC (stereo not given in full)
Ans. False

Qu. What was the test verdict on Oc1cc(O)c2c(c1)OC(c1ccc(O)c(O)c1)C(O)C2 (stereo not given) ?
Ans. False

Qu. Hi team, can someone confirm the assay call for CCC(=O)NCCC1CCc2ccc3c(c21)CCO3 (stereo not given) ?
Ans. False

Qu. Write down the call the test reported for this molecule. Item: `CCCCCCCCCCCCCCCC(=O)OCC(COC(=O)CCCCCCCCCCCCCCC)OC(=O)CCCCCCCCCCCCCCC`
Ans. False
